test system: T1, human ST2L (human, UniProt Q01638 19-328, limits assumed)
T1 construct: also called IL-1R4; IL-33Ra
T1 sequence (looked up): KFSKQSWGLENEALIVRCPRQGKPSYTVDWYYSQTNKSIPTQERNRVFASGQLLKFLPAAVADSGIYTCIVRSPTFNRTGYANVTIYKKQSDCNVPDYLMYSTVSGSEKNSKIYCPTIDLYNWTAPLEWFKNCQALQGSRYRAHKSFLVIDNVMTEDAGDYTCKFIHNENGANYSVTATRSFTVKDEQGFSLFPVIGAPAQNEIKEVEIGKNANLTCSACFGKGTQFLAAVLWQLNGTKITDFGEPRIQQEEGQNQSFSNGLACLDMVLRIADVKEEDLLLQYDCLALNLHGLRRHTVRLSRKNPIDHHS
assay text: affinity table; method not stated
This listing pairs binders with measured kon.
parameter measured: kon (M⁻¹ s⁻¹)

binder="STLM229 (antibody, from another filing, V domains shown) VH: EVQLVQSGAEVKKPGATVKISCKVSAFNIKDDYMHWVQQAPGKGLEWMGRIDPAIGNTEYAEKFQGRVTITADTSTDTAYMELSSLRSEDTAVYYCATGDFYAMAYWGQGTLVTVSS VL: DIQMTQSPSSVSASVGDRVTITCITNTDIDDVIHWYQQKPGKAPKLLIYEGNTLRPGVPSRFSGSGSGTDFTLTISSLQPEDFATYYCLQSDNMLTFGQGTKLEIK" unit_info="M⁻¹ s⁻¹" number=1.29e+07
binder="STLM209 (antibody, from another filing, V domains shown) VH: EVQLLESGGGLVQPGGSLRLSCAASGFTFSIYDMIWVRQAPGKGLEWVSTIRGEGGGTSYADSVKGRFTISRDNSKNTLYLQMNSLRAEDTAVYYCARDPWSTEGSFFVLDYWGQGTLVTVSS VL: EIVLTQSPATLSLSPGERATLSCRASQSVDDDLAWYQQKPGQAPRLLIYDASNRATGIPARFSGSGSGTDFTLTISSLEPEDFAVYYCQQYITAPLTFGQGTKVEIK" unit_info="M⁻¹ s⁻¹" number=6.59e+06
